assay-system: UniProtKB Q99720
Sequence (Q99720 whole entry): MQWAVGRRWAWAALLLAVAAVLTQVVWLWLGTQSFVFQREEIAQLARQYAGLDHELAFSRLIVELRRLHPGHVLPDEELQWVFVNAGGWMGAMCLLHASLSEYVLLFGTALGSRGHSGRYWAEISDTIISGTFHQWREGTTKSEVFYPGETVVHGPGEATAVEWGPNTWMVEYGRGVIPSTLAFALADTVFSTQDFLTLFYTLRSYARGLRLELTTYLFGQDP
test-summary: Sigma-1 competitive radioligand binding, [3H](+)pentazocine, Jurkat cell membranes
condition-details: Ki at sigma-1 receptors, displacement of [3H]-(+)-pentazocine, human Jurkat cell membranes
endpoint: Ki (nM)
Numbers only, in nM.

Q: Can you share its Ki? I mean this compound: COc1cc(CCC(C)NCc2ccc(C(F)(F)F)cc2)ccc1O (stereo not shown)
Result: 500

---

System: Abeta oligomer-induced membrane trafficking deficits in primary hippocampal neurons
test-summary: Membrane trafficking/exocytosis (MTT) assay
Assay type: cell-based, rat
condition-details: Rattus norvegicus, Hippocampal neuron, Table 12; read-out: EC50
endpoint: EC50 (nM)
Answers are plain numbers, in nM.

Q: // EC50 lookup, key: COc1cc(CCC(C)NCc2ccc(C(F)(F)F)cc2)ccc1O (stereo not shown) [Compound II]
Result: 2200

---

assay-system: Abeta oligomer-induced membrane trafficking deficits in primary hippocampal neurons
test-summary: Membrane trafficking/exocytosis (MTT) assay
Format: cell-based, rat
condition-details: Km for Abeta = 0.4 uM; assay concentr. 3 μM total Abeta; read-out: Calculated Ki
endpoint: Ki
Give the figure together with its unit, number first.

Q: What value of Ki has been reported for the following compound? COc1cc(CCC(C)NCc2ccc(C(F)(F)F)cc2)ccc1O (stereo not shown) [Compound II]
Result: 260 nM

---

Give Ki for every item shown.
assay-system: sigma-2 receptor (Rattus norvegicus, UniProt Q5U3Y7)
test-summary: Sigma-2 competitive radioligand binding, [3H]DTG with 300 nM (+)pentazocine, rat cerebral cortex membranes
condition-details: Sigma 2 Binding Ki (nM), Table 2, own compounds

Worked set:
> print(dat)
                                   molecule  endpoint  result
1  COc1cc(CCC(C)NCc2ccc(C(F)(F)F)cc2)ccc1O (stereo not drawn) [Compound II]        Ki    9 nM
2  COc1cc(CCC(C)NCc2ccc(C(F)(F)F)cc2)ccc1O (single isomer, unassigned) [II (+) isomer]        Ki   52 nM

Now turn to the next molecule.
Q: # lookup: Ki of COc1cc(CCC(C)NCc2ccc(C(F)(F)F)cc2)ccc1O (single isomer, unassigned) [II (−) isomer]
Result: 63 nM

---

Tested on: Abeta oligomer-induced membrane trafficking deficits in primary hippocampal neurons
test-summary: Membrane trafficking/exocytosis (MTT) assay
Assay type: cell-based, rat
condition-details: Rattus norvegicus, Hippocampal neuron; Table 11D; read-out: Membrane trafficking IC50
endpoint: pIC50
One number for each entry, as −log10 of the molar value.

Q: Give the measured pIC50 of "COCCCC/C(=N\OCCN)c1ccc(C(F)(F)F)cc1" .
Result: 5.60

---

So I've got a bunch of compounds here, and I need their Ki values.
assay-system: UniProt Q5U3Y7
Sequence (Q5U3Y7 1-176): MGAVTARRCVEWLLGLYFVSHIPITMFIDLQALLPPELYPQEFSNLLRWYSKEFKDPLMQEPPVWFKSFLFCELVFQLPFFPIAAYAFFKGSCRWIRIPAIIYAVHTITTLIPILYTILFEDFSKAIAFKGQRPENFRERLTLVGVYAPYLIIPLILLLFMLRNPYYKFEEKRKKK
test-summary: Sigma-2 competitive radioligand binding, [3H]DTG with 300 nM (+)pentazocine, rat cerebral cortex membranes
condition-details: S2 binding Ki (nM), Table 11B
Give bare numbers, in nM.

Before answering, review these 2 worked examples.
> print(dat)
                                   compound  quantitative.readout
1  COc1cc(CCC(C)NCc2ccc(C(F)(F)F)cc2)ccc1O (single isomer, unassigned) [II (−) isomer]                    63
2  COc1cc(CCC(C)NCc2ccc(C(F)(F)F)cc2)ccc1O (single isomer, unassigned) [II (+) isomer]                    80

The record that follows has no Ki shown yet.
Q: Which Ki is listed for COc1cc(CCC(C)NCc2ccc(C(F)(F)F)cc2)ccc1O (stereo not drawn) [Compound II] ?
Result: 9

Entry source: patent US20140378460A1
